- measurement.target: N-terminal truncated dSAMTOR (Δ1-64) (Drosophila melanogaster, UniProt Q9W138)
- Sequence (Q9W138 65-302, stated change not applied): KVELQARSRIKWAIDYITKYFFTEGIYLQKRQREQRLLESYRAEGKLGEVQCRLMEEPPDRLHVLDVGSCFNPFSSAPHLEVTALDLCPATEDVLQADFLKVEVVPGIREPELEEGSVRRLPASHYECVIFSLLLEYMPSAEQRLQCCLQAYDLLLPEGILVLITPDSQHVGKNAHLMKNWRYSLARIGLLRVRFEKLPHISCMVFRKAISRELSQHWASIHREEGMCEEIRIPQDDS
- measurement.protocol: ITC ligand binding, Δ1-64 dSAMTOR
- details: ITC, 25°C, Δ1-64 dSAMTOR
pKd: −log10 of the molar value.

{"chem.smiles": "Nc1ncnc2c1ncn2[C@@H]1O[C@H](CSCC[C@H](N)C(=O)O)[C@@H](O)[C@H]1O", "pKd": 4.88}

---

- measurement.target: V66W/E67P mutant dSAMTOR (Drosophila melanogaster, UniProt Q9W138, E67P/V66W)
- Sequence (Q9W138 whole entry V66W/E67P): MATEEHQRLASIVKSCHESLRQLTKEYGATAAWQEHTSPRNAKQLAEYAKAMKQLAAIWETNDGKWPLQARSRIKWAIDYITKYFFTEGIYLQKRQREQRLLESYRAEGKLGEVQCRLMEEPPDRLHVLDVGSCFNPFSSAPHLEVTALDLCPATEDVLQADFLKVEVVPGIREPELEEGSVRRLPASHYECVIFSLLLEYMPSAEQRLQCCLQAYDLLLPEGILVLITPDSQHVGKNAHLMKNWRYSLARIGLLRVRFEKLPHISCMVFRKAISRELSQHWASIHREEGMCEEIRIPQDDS
- measurement.protocol: ITC ligand binding, V66W/E67P dSAMTOR
pKd: −log10 of the molar value.

{"compound": "C[S+](CC[C@H](N)C(=O)[O-])C[C@H]1O[C@@H](n2cnc3c(N)ncnc32)[C@H](O)[C@@H]1O (stereo partly shown) [SAM, S-adenosylmethionine]", "pKd": 5.02}

---

- measurement.target: F135A mutant dSAMTOR (Drosophila melanogaster, UniProt Q9W138, F135A)
- Sequence (Q9W138 whole entry F135A): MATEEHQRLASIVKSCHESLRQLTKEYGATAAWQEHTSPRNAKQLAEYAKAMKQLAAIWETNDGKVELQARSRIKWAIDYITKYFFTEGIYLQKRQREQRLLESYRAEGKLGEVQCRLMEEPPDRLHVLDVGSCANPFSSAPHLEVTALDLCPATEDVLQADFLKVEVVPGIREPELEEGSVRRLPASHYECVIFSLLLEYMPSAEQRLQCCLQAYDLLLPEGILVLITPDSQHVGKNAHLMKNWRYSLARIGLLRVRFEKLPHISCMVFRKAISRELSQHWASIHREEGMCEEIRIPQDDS
- measurement.protocol: ITC ligand binding, F135A dSAMTOR
- details: ITC, 25°C, F135A dSAMTOR

{"chem.smiles": "Nc1ncnc2c1ncn2[C@@H]1O[C@H](CSCC[C@H](N)C(=O)O)[C@@H](O)[C@H]1O", "Kd / µM": 4.76}

---

- measurement.target: F135A mutant dSAMTOR (Drosophila melanogaster, UniProt Q9W138, F135A)
- measurement.protocol: ITC ligand binding, F135A dSAMTOR

{"compound": "C[S+](CC[C@H](N)C(=O)[O-])C[C@H]1O[C@@H](n2cnc3c(N)ncnc32)[C@H](O)[C@@H]1O (stereo partly shown)", "Kd, µM": 6.46}

---

- measurement.target: V66W/E67P mutant dSAMTOR (Drosophila melanogaster, UniProt Q9W138, E67P/V66W)
- measurement.protocol: ITC ligand binding, V66W/E67P dSAMTOR
- details: ITC, 25°C, V66W/E67P dSAMTOR
pKd: −log10 of the molar value.
readout.kind: pKd

{"chem.smiles": "Nc1ncnc2c1ncn2[C@@H]1O[C@H](CSCC[C@H](N)C(=O)O)[C@@H](O)[C@H]1O", "quantitative.result": 4.95}

---

- measurement.target: dSAMTOR (WT, full-length) (Drosophila melanogaster)
- Sequence (Q9W138 whole entry): as the sequence (Q9W138 whole entry F135A) above, with A135F counted along it
- measurement.protocol: ITC ligand binding, WT dSAMTOR

{"compound": "C[S+](CC[C@H](N)C(=O)[O-])C[C@H]1O[C@@H](n2cnc3c(N)ncnc32)[C@H](O)[C@@H]1O (stereo partly shown)", "measurement.target": "dSAMTOR (WT, full-length) (Drosophila melanogaster)", "Kd": "10.7 µM"}
